Please go through the items and note down their inhibition of growth at 10 µM.
- PROTOCOL_DETAILS: Cytotoxicity against human Hs 578T cells at 10 uM after 48 hrs by SRB assay
- Assay type: functional
- CONDITION_SET: read-out: GI
A number alone suffices; assume %.

Field request: inhibition of growth at 10 µM | item: Cc1nc2cc(Nc3nc(Nc4ccc(F)cc4)nc(-c4ccc(Cl)cc4)n3)ccc2n1Cc1ccccc1 24.6

Fill in: inhibition of growth at 10 µM of Cc1nc2cc(Nc3nc(Nc4ccc(F)cc4)nc(-c4ccccc4)n3)ccc2n1Cc1ccccc1 is ___ 20.4

Endpoint output: inhibition of growth at 10 µM of Cc1nc2ccc(Nc3nc(Nc4ccc(F)cc4)nc(N4CCCCC4)n3)cc2n1Cc1ccccc1 . Value? 0.58

For COc1ccc(-c2nc(Nc3ccc(F)cc3)nc(Nc3ccc4c(c3)nc(C)n4Cc3ccccc3)n2)cc1 , what is its reported inhibition of growth at 10 µM? 45.5

Please give the measured inhibition of growth at 10 µM for this compound: Cc1nc2ccc(Nc3nc(NCCN)nc(Nc4ccc(F)cc4)n3)cc2n1Cc1ccccc1 20.5

So what's the measured inhibition of growth at 10 µM for this one? Cc1nc2cc(Nc3nc(Nc4ccc(F)cc4)nc(Nc4ccc(F)cc4)n3)ccc2n1Cc1ccccc1 10.4

Param item = Cc1nc2cc(Nc3nc(Nc4ccc(F)cc4)nc(-c4cccs4)n3)ccc2n1Cc1ccccc1 ; retrieve measured inhibition of growth at 10 µM. 49.7

Any idea what its inhibition of growth at 10 µM is? The compound is Cc1nc2cc(Nc3nc(Nc4ccc(F)cc4)nc(N4CCCC4)n3)ccc2n1Cc1ccccc1 69.4

Consider the compound Cc1nc2cc(Nc3nc(Cl)nc(Nc4ccc(F)cc4)n3)ccc2n1Cc1ccccc1 and give its measured inhibition of growth at 10 µM. 20.5
